System: HL-60(TB)
Could you mark each record 1.0 if its GI50 falls strictly under 3 µM, and 0.0 if it equals or exceeds it?

Cc1[nH]c(=S)sc1C(=O)/C=C/c1ccc(F)cc1 | 1.0
Cc1[nH]c(=S)sc1C(=O)/C=C/c1ccc(Br)cc1 | 1.0
Cc1[nH]c(=S)sc1C(=O)/C=C/c1cccc([N+](=O)[O-])c1 | 1.0

Lookup: Bench note: check whether `COc1cc(/C=C/C(=O)c2sc(=S)[nH]c2C)cc(OC)c1OC` shows GI50 below 3 µM
Found: 1.0

Lookup: Bench note: check whether `Cc1[nH]c(=S)sc1C(=O)/C=C/c1cccc(Cl)c1` shows GI50 below 3 µM
Found: 1.0

Lookup: Bench note: check whether `Cc1[nH]c(=S)sc1C(=O)/C=C/c1ccc(Cl)cc1` shows GI50 below 3 µM
Found: 0.0

* * *

Tested on: U251
Test: NCI-60 anticancer screen (SRB; single dose and five doses)
Settings: Homo sapiens, U-251, read-out: LC50
Parameter measured: CC50 (µM)
Report only the number, with the unit µM understood.

Example compounds with recorded CC50:
Cc1[nH]c(=S)sc1C(=O)/C=C/c1ccc(F)cc1 | 41.9
Cc1[nH]c(=S)sc1C(=O)/C=C/c1cccc([N+](=O)[O-])c1 | 5.89
COc1cc(/C=C/C(=O)c2sc(=S)[nH]c2C)cc(OC)c1OC | 43.6
Cc1[nH]c(=S)sc1C(=O)/C=C/c1ccc([N+](=O)[O-])cc1 | 53
Cc1[nH]c(=S)sc1C(=O)/C=C/c1cccc(Cl)c1 | 7.24

Lookup: Requested read-out: CC50. Entry: `Cc1[nH]c(=S)sc1C(=O)/C=C/c1ccc(Br)cc1`
Found: 39.7

Lookup: Requested read-out: CC50. Entry: `Cc1[nH]c(=S)sc1C(=O)/C=C/c1ccc(Cl)cc1`
Found: 40.7

* * *

System: SNB-75
Assay: NCI-60 anticancer screen (SRB; single dose and five doses)
Settings: Homo sapiens, SNB-75, read-out: LC50
Each entry below carries its reported CC50.
Report only the number, with the unit µM understood.

Lookup: Requested read-out: CC50. Entry: `Cc1[nH]c(=S)sc1C(=O)/C=C/c1ccc(Cl)cc1`
Found: 28.8

Lookup: Requested read-out: CC50. Entry: COc1ccc(/C=C\c2cc(OC)c(OC)c(OC)c2)cc1O [CA-4, Combretastatin-A4, reference compound]
Found: 82.4

Lookup: Requested read-out: CC50. Entry: `Cc1[nH]c(=S)sc1C(=O)/C=C/c1cccc([N+](=O)[O-])c1`
Found: 27.5

Lookup: Requested read-out: CC50. Entry: `COc1cc(/C=C/C(=O)c2sc(=S)[nH]c2C)cc(OC)c1OC`
Found: 28.8

* * *

Each entry below carries its reported IC (TGI).
Test system: SW-620
Test: NCI-60 anticancer screen (SRB; single dose and five doses)
Details: Homo sapiens, SW-620, read-out: TGI
# answer = value followed by unit

Example molecules with recorded IC (TGI):
Cc1[nH]c(=S)sc1C(=O)/C=C/c1ccc(F)cc1 [2c] | 15 µM
Cc1[nH]c(=S)sc1C(=O)/C=C/c1ccc([N+](=O)[O-])cc1 [2i] | 13.9 µM
COc1cc(/C=C/C(=O)c2sc(=S)[nH]c2C)cc(OC)c1OC [2p] | 9.77 µM
Cc1[nH]c(=S)sc1C(=O)/C=C/c1ccc(Br)cc1 [2g] | 11.7 µM

Lookup: Requested read-out: IC (TGI). Entry: Cc1[nH]c(=S)sc1C(=O)/C=C/c1cccc([N+](=O)[O-])c1 [2h]
Found: 11 µM

Lookup: Requested read-out: IC (TGI). Entry: Cc1[nH]c(=S)sc1C(=O)/C=C/c1cccc(Cl)c1 [2e]
Found: 3.8 µM

Lookup: Requested read-out: IC (TGI). Entry: Cc1[nH]c(=S)sc1C(=O)/C=C/c1ccc(Cl)cc1 [2f]
Found: 11.2 µM

* * *

System: 786-0
Assay: NCI-60 anticancer screen (SRB; single dose and five doses)
Details: Homo sapiens, 786-0, 48 h, read-out: Growth Percentage
Parameter measured: activity at 10 µM (%)
Report only the number, with the unit % understood.

Example molecules with recorded activity at 10 µM:
Cc1ccc(/C=C/C(=O)c2sc(=S)[nH]c2C)cc1 | 70.7
Cc1[nH]c(=S)sc1C(=O)/C=C/c1ccc(Br)cc1 | 25
COc1ccc(/C=C/C(=O)c2sc(=S)[nH]c2C)cc1OC | 60

Next molecule, activity at 10 µM to be filled in.
Lookup: Requested read-out: activity at 10 µM. Entry: `Cc1[nH]c(=S)sc1C(=O)/C=C/c1ccccc1`
Found: 68.1

* * *

Notes on GI50 obtained with OVCAR-3.
Report only the number, with the unit µM understood.

Example compounds with recorded GI50:
Cc1[nH]c(=S)sc1C(=O)/C=C/c1ccc(F)cc1 [2c] | 2.42
Cc1[nH]c(=S)sc1C(=O)/C=C/c1cccc([N+](=O)[O-])c1 [2h] | 2.4
Cc1[nH]c(=S)sc1C(=O)/C=C/c1ccc([N+](=O)[O-])cc1 [2i] | 2.22
Cc1[nH]c(=S)sc1C(=O)/C=C/c1ccc(Br)cc1 [2g] | 1.88
Cc1[nH]c(=S)sc1C(=O)/C=C/c1ccc(Cl)cc1 [2f] | 2.82
COc1cc(/C=C/C(=O)c2sc(=S)[nH]c2C)cc(OC)c1OC [2p] | 2.45

Lookup: Requested read-out: GI50. Entry: Cc1[nH]c(=S)sc1C(=O)/C=C/c1cccc(Cl)c1 [2e]
Found: 2.29

* * *

System: SR
Test: NCI-60 anticancer screen (SRB; single dose and five doses)
Details: Homo sapiens, read-out: LC50
Parameter measured: CC50

Cc1[nH]c(=S)sc1C(=O)/C=C/c1cccc(Cl)c1 [2e] | > 100 µM
Cc1[nH]c(=S)sc1C(=O)/C=C/c1ccc(Cl)cc1 [2f] | > 100 µM
COc1cc(/C=C/C(=O)c2sc(=S)[nH]c2C)cc(OC)c1OC [2p] | > 100 µM
Cc1[nH]c(=S)sc1C(=O)/C=C/c1ccc([N+](=O)[O-])cc1 [2i] | > 100 µM
Cc1[nH]c(=S)sc1C(=O)/C=C/c1ccc(Br)cc1 [2g] | > 100 µM
Cc1[nH]c(=S)sc1C(=O)/C=C/c1cccc([N+](=O)[O-])c1 [2h] | > 100 µM

Next compound, CC50 to be filled in.
Lookup: Requested read-out: CC50. Entry: Cc1[nH]c(=S)sc1C(=O)/C=C/c1ccc(F)cc1 [2c]
Found: > 100 µM

* * *

Tested on: NCI/ADR-RES
Experiment: NCI-60 anticancer screen (SRB; single dose and five doses)
Settings: Homo sapiens
Could you mark each record 1.0 if its GI50 falls strictly under 3 µM, and 0.0 if it equals or exceeds it?

Here's what some known entries look like.
Cc1[nH]c(=S)sc1C(=O)/C=C/c1ccc(Br)cc1 | 0.0
Cc1[nH]c(=S)sc1C(=O)/C=C/c1ccc(Cl)cc1 | 0.0
Cc1[nH]c(=S)sc1C(=O)/C=C/c1ccc([N+](=O)[O-])cc1 | 0.0
Cc1[nH]c(=S)sc1C(=O)/C=C/c1cccc(Cl)c1 | 1.0

Lookup: Bench note: check whether `Cc1[nH]c(=S)sc1C(=O)/C=C/c1ccc(F)cc1` shows GI50 below 3 µM
Found: 0.0

Lookup: Bench note: check whether `COc1cc(/C=C/C(=O)c2sc(=S)[nH]c2C)cc(OC)c1OC` shows GI50 below 3 µM
Found: 1.0

Lookup: Bench note: check whether `Cc1[nH]c(=S)sc1C(=O)/C=C/c1cccc([N+](=O)[O-])c1` shows GI50 below 3 µM
Found: 1.0

* * *

Test system: ACHN
Assay: NCI-60 anticancer screen (SRB; single dose and five doses)
Details: Homo sapiens, read-out: LC50
Parameter measured: CC50 (µM)
Report only the number, with the unit µM understood.

Cc1[nH]c(=S)sc1C(=O)/C=C/c1ccc(Cl)cc1 [2f] | 51.3
Cc1[nH]c(=S)sc1C(=O)/C=C/c1cccc(Cl)c1 [2e] | 21.4

Lookup: Requested read-out: CC50. Entry: Cc1[nH]c(=S)sc1C(=O)/C=C/c1cccc([N+](=O)[O-])c1 [2h]
Found: 38.9

* * *

Test system: U251
Assay: NCI-60 anticancer screen (SRB; single dose and five doses)
Settings: Homo sapiens, U-251, read-out: TGI
Parameter measured: IC (TGI) (µM)
Report only the number, with the unit µM understood.

Cc1[nH]c(=S)sc1C(=O)/C=C/c1ccc(Br)cc1 [2g] | 11.7
Cc1[nH]c(=S)sc1C(=O)/C=C/c1cccc([N+](=O)[O-])c1 [2h] | 3.24
Cc1[nH]c(=S)sc1C(=O)/C=C/c1ccc(F)cc1 [2c] | 15.1

Lookup: Requested read-out: IC (TGI). Entry: Cc1[nH]c(=S)sc1C(=O)/C=C/c1cccc(Cl)c1 [2e]
Found: 3.72
